- Test system: CYP1A protein expression
- condition details: zebrafish, in vivo
endpoint name: Tissue Type expressing CYP1A

compound: Cc1cccc2c1ccc1cc(C(C)C)ccc12 [Retene]
Tissue Type expressing CYP1A: Vasculature

compound: Cc1cccc2c(C)cccc12 [1,5-dimethylnaphthalene]
Tissue Type expressing CYP1A: Liver

compound: c1ccc2c(c1)oc1ccccc12 [Dibenzofuran]
Tissue Type expressing CYP1A: Vasculature

compound: c1ccc2[nH]ccc2c1 [Indole]
Tissue Type expressing CYP1A: Yolk

Here's the next entry for you.
Please give the documented Tissue Type expressing CYP1A of CCc1ccc2c(c1)C(=O)c1ccccc1C2=O [2-ethylanthraquinone]
Yolk
